Entries annotated with measured Potency
# Assay Text: Quantitative High-Throughput drug screen in 47 multiple myeloma cell lines against the NCATS MIPE library collection: Karpas25_ECACC cell viability assay (AID 1918968; further: potency means the concentration at half of the fitted maximal effect; nearly all actives have a fitted effect of over 35% in size)
# Test Context: Karpas25 myeloma viability, CellTiter-Glo ATP, 48 h; series mostly up to 45.8 µM
Inconclusive results are not listed. The source made the active and inactive calls. The call rests on the fitted dose curve; in most records, active means well fitted cell-killing curve with a large enough effect; inconclusive means small, poorly fitted or top-dose-only effect, or effect the other way; inactive means no such curve, though single readings can be large or run the other way.

[in] For CCC(C)SSc1ncc[nH]1 (stereo not drawn) , what is its reported Potency?
[out] 4.18 µM (active)

[in] For `COC(=O)Nc1ccc(-c2nc(N3CCOCC3)c3cnn(C4CCN(C(=O)OC)CC4)c3n2)cc1` , what is its reported Potency?
[out] 0.0187 µM (active)

[in] For `COc1ccc(-c2cc(=O)c3c(O)cc(O[C@@H]4O[C@H](CO[C@@H]5O[C@@H](C)[C@H](O)[C@@H](O)[C@@H]5O)[C@@H](O)[C@H](O)[C@@H]4O)cc3o2)cc1O` , what is its reported Potency?
[out] 11.8 µM (active)

* * *

# Assay Text: Quantitative High-Throughput drug screen in 47 multiple myeloma cell lines against the NCATS MIPE library collection: KMS26_JCRB cell viability assay (AID 1918975); further: nearly all actives have a fitted effect of over 45% in size
# Test Context: KMS26 myeloma cells viability, CellTiter-Glo ATP, 48 h; series mostly up to 45.8 µM
Inconclusive results are not listed. The source made the active and inactive calls. The call rests on the fitted dose curve; in most records, active means well fitted cell-killing curve with a large enough effect; inconclusive means small, poorly fitted or top-dose-only effect, or effect the other way; inactive means no such curve, though single readings can be large or run the other way.
Hi! Could you answer with just one of these? Y = active, N = inactive

Look over these answered cases.
compound=CCN1CCC(n2cc(CNc3cc(Cl)c4ncc(C#N)c(Nc5ccc(F)c(Cl)c5)c4c3)nn2)CC1 assigned_label=Y
compound=Cc1ccc2c(c1)c1c(n2CCc2ccc(C)nc2)CCN(C)C1 assigned_label=N
compound="N#CC(c1ccc(Cl)cc1)c1c(Cl)cc(-n2ncc(=O)[nH]c2=O)cc1Cl (configuration not stated)" assigned_label=N
compound=CNC(=O)[C@H](Cc1ccccc1)NC(=O)[C@H](CC(C)C)[C@H](CSc1cccs1)C(=O)NO assigned_label=N
compound=CCc1cc(-c2n[nH]c(C)c2-c2ccc3c(c2)OCCO3)c(O)cc1O assigned_label=Y

Here is the next item to consider.
[in] Recorded test outcome, item `c1ccc(-c2oc3ncnc(NC[C@@H]4CCCO4)c3c2-c2ccccc2)cc1`
[out] Y

* * *

# Assay Text: Quantitative High-Throughput drug screen in 47 multiple myeloma cell lines against the NCATS MIPE library collection: XG1_PLB cell viability assay (AID 1919866); further: nearly all actives have a fitted effect of over 35% in size
# Test Context: CellTiter-Glo ATP, 48 h; series mostly up to 45.8 µM
# Description: PI: Beverly A. Mock Ph.D. Laboratory of Cancer Biology and Genetics, Center for Cancer Research, National Cancer Institute, National Institute of Health, Bethesda, Maryland […] 5; Detector; 425V; Luminescence; Viewlux PerkinElmer. […] 1. […] Briefly, the corresponding myeloma cell lines were screened in 1,536-well plates with 500 cells, 5-uL per well for inhibition of cell viability (assessed by measuring ATP levels with CellTiterGlo). […]
Inconclusive results are not listed. Active and inactive are the calls of the source. The call rests on the fitted dose curve; in most records, active means well fitted cell-killing curve with a large enough effect; inconclusive means small, poorly fitted or top-dose-only effect, or effect the other way; inactive means no such curve, though single readings can be large or run the other way.
Hi! Could you answer with just one of these? yes (active), no (inactive)

Look over these answered cases.
smiles_str=O=c1[nH]c(=O)n([C@H]2C[C@@H](O)[C@@H](CO)O2)cc1I assigned_label=no
smiles_str=C[C@@H]1[C@H](C)CC[C@]2(C(=O)O)CC[C@]3(C)C(=CC[C@@H]4[C@@]5(C)CC[C@H](O)C(C)(C)[C@H]5CC[C@]43C)[C@@H]12 assigned_label=yes
smiles_str=COC(=O)N1CCN(Cc2cccc(NC(=O)Nc3ccc(C)nc3)c2F)CC1 assigned_label=no

[in] Recorded test outcome, item `CC[C@H](NC(=O)[C@H](C)NC)C(=O)N1C[C@@H](O)C[C@H]1Cc1c(-c2[nH]c3cc(F)ccc3c2C[C@H]2C[C@H](O)CN2C(=O)[C@H](CC)NC(=O)[C@H](C)NC)[nH]c2cc(F)ccc12`
[out] yes

[in] Recorded test outcome, item `CCN1CCC(n2cc(CNc3cc(Cl)c4ncc(C#N)c(Nc5ccc(F)c(Cl)c5)c4c3)nn2)CC1`
[out] yes
